Source of measurements: patent US8217055B2

System: Amaranthus retroflexus
Assay: Example B2 herbicidal action, post-emergence, pots in glasshouse, evaluated after 13 days (10=total damage to plant; 0=no damage to plant)
Format: in vivo
Settings: rate 1000 g/ha
Description: Seeds of a variety of test species were sown in standard soil in pots. […] After 13 days, the test was evaluated (10=total damage to plant; 0=no damage to plant).
Provide the recorded AMARE damage score (10=total damage to plant; 0=no damage to plant) for the entries that follow.

Take a look at these entries with their results.
{"molecule": "O=c1c(-c2c(F)ccc([N+](=O)[O-])c2Cl)c(O)c2nccnc2n1CC(F)F", "assay-target": "Amaranthus retroflexus", "measurement": 9}
{"molecule": "CC(C)C(=O)Oc1c(-c2c(F)ccc(F)c2Cl)c(=O)n(CC=C(Cl)Cl)c2nccnc12", "assay-target": "Amaranthus retroflexus", "measurement": 8}
{"molecule": "CC(C)(C)C(=O)Oc1c(-c2c(F)ccc(Br)c2Cl)c(=O)n(CC(F)F)c2nccnc12", "assay-target": "Amaranthus retroflexus", "measurement": 10}

Dear reader, for each entry below, please note its AMARE damage score (10=total damage to plant; 0=no damage to plant).
1. O=C1c2nccnc2N(CC=C(Cl)Cl)C(=O)C1c1c(F)ccc(F)c1Cl (stereo not drawn)
2. COc1ccc(OC(F)(F)F)cc1-c1c(OC(=O)C(C)C)c2nccnc2n(CC(F)F)c1=O
3. CC(C)(C)C(=O)Oc1c(-c2cc(F)c(Cl)cc2Cl)c(=O)n(CC(F)F)c2nccnc12
4. CC(C)(C)C(=O)Oc1c(-c2c(Cl)cc(C(F)(F)F)cc2Cl)c(=O)n(CC(F)F)c2nccnc12

Result string:
1: 9; 2: 10; 3: 3; 4: 10

Dear reader, for each entry below, please note its AMARE damage score (10=total damage to plant; 0=no damage to plant).
1. O=c1c(-c2cc(Cl)ccc2C(F)(F)F)c(O)c2nccnc2n1CC(F)F
2. O=c1c(-c2c(Cl)cccc2C(F)(F)F)c(O)c2nccnc2n1CC(F)F

Result string:
1. 10
2. 10

---

system: Echinochloa crus-galli; assay: Example B2 herbicidal action, post-emergence, pots in glasshouse, evaluated after 13 days (10=total damage to plant; 0=no damage to plant); format: in vivo; conditions: rate 1000 g/ha
Provide the recorded ECHCG damage score (10=total damage to plant; 0=no damage to plant) for the entries that follow.
Give bare numbers.

{"compound": "O=c1c(-c2c(F)ccc(Br)c2Cl)c(O)c2nccnc2n1CC(F)F [B6]", "measurement": 8}
{"compound": "O=c1c(-c2c(Cl)ccc(Cl)c2Cl)c(O)c2nccnc2n1CC(F)F [B11]", "measurement": 8}
{"compound": "CC(C)(C)C(=O)Oc1c(-c2c(F)ccc(F)c2Cl)c(=O)n(CCC=C(F)F)c2nccnc12 [C11]", "measurement": 0}

Dear reader, for each entry below, please note its ECHCG damage score (10=total damage to plant; 0=no damage to plant).
1. O=c1c(-c2cc(Cl)ccc2C(F)(F)F)c(O)c2nccnc2n1CC(F)F [B10]
2. O=C1c2nccnc2N(CCF)C(=O)C1c1c(F)ccc(F)c1Cl (stereo not drawn) [D2]
3. CCc1ccccc1-c1c(OC(=O)C(C)C)c2nccnc2n(CC(F)F)c1=O [A45]
4. COc1cccc(-c2c(OC(=O)C(C)C)c3nccnc3n(CC(F)F)c2=O)c1OC [A15]
5. CC(C)(C)C(=O)Oc1c(-c2ccc(C(F)(F)F)cc2Br)c(=O)n(CC(F)F)c2nccnc12 [A10]
6. CC(C)(C)C(=O)Oc1c(-c2cc(F)c(Cl)cc2Cl)c(=O)n(CC(F)F)c2nccnc12 [A17]

Result string:
9
1
5
8
4
6

---

Provide the recorded ECHCG damage score (10=total damage to plant; 0=no damage to plant) for the entries that follow.
test system: Echinochloa crus-galli; assay: Example B2 herbicidal action, post-emergence, pots in glasshouse, evaluated after 13 days (10=total damage to plant; 0=no damage to plant); assay type: in vivo; details: rate 1000 g/ha
One number for each entry.

{"cpd-smiles": "CC(C)C(=O)Oc1c(-c2c(F)ccc(F)c2Cl)c(=O)n(CC(F)(F)F)c2nccnc12", "measurement": 3}
{"cpd-smiles": "CC(C)C(=O)Oc1c(-c2ccccc2OC(F)F)c(=O)n(CC(F)F)c2nccnc12", "measurement": 2}
{"cpd-smiles": "CC(C)(C)C(=O)Oc1c(-c2c(F)ccc(F)c2Cl)c(=O)n(CC(F)(F)F)c2nccnc12", "measurement": 1}

Dear reader, for each entry below, please note its ECHCG damage score (10=total damage to plant; 0=no damage to plant).
1. CC(C)(C)C(=O)Oc1c(-c2c(F)ccc(F)c2Cl)c(=O)n(CCF)c2nccnc12
2. CC(C)C(=O)Oc1c(-c2c(Cl)cccc2C(F)(F)F)c(=O)n(CC(F)F)c2nccnc12
3. CC(C)(C)C(=O)Oc1c(-c2c(F)ccc(F)c2Cl)c(=O)n(CC=C(Cl)Cl)c2nccnc12

Result string:
0
8
0

Dear reader, for each entry below, please note its ECHCG damage score (10=total damage to plant; 0=no damage to plant).
1. COc1ccc(OC(F)(F)F)cc1-c1c(OC(=O)C(C)(C)C)c2nccnc2n(CC(F)F)c1=O
2. Cc1cc(C)c(-c2c(O)c3nccnc3n(CC(F)F)c2=O)c(C)c1

Result string:
1: 7; 2: 8

---

system: Echinochloa crus-galli; test: Example B2 herbicidal action, post-emergence, pots in glasshouse, evaluated after 13 days (10=total damage to plant; 0=no damage to plant); type: in vivo; conditions: rate 1000 g/ha
Response field label: string, one of fulfilled (ECHCG damage score (10=total damage to plant; 0=no damage to plant) strictly below 7) or not fulfilled.

Here are 2 compounds together with their reported answers.
{"compound": "COc1ccc(Br)cc1-c1c(O)c2nccnc2n(CC(F)F)c1=O [B12]", "discrete-label": "fulfilled"}
{"compound": "CC(C)(C)C(=O)Oc1c(-c2c(F)cccc2Cl)c(=O)n(CC(F)F)c2nccnc12 [A34]", "discrete-label": "fulfilled"}

Query string: Take the compound CC(C)(C)C(=O)Oc1c(-c2cc(Cl)ccc2C(F)(F)F)c(=O)n(CC(F)F)c2nccnc12 [A37] and say whether its ECHCG damage score (10=total damage to plant; 0=no damage to plant) is less than 7.
Result string: fulfilled

Query string: Take the compound CC(C)C(=O)Oc1c(-c2cc(F)ccc2Cl)c(=O)n(CC(F)F)c2nccnc12 [A13] and say whether its ECHCG damage score (10=total damage to plant; 0=no damage to plant) is less than 7.
Result string: not fulfilled

Query string: Take the compound CC(C)(C)C(=O)Oc1c(-c2c(F)ccc(F)c2Cl)c(=O)n(CCC(F)=C(F)F)c2nccnc12 [C12] and say whether its ECHCG damage score (10=total damage to plant; 0=no damage to plant) is less than 7.
Result string: fulfilled

---

system: Amaranthus retroflexus; test: Example B2 herbicidal action, post-emergence, pots in glasshouse, evaluated after 13 days (10=total damage to plant; 0=no damage to plant); assay type: in vivo; conditions: rate 1000 g/ha
experimental-endpoint: AMARE damage score (10=total damage to plant; 0=no damage to plant)
Answers are plain numbers.

{"compound": "O=c1c(-c2c(F)ccc(Cl)c2Cl)c(O)c2nccnc2n1CC(F)F", "assay-target": "Amaranthus retroflexus", "measurement": 10}
{"compound": "COc1ccc(OC(F)(F)F)cc1-c1c(O)c2nccnc2n(CC(F)F)c1=O", "assay-target": "Amaranthus retroflexus", "measurement": 10}

Dear reader, for each entry below, please note its AMARE damage score (10=total damage to plant; 0=no damage to plant).
1. CC(C)(C)C(=O)Oc1c(-c2cc(C(F)(F)F)ccc2C(F)(F)F)c(=O)n(CC(F)F)c2nccnc12
2. CC(C)C(=O)Oc1c(-c2c(F)ccc(F)c2Cl)c(=O)n(CC(F)(F)F)c2nccnc12
3. COc1cccc(-c2c(OC(=O)C(C)(C)C)c3nccnc3n(CC(F)F)c2=O)c1OC
4. Cc1cc(C)c(-c2c(O)c3nccnc3n(CC(F)F)c2=O)c(C)c1
5. CC(C)(C)C(=O)Oc1c(-c2c(F)ccc(F)c2Cl)c(=O)n(CCF)c2nccnc12
6. O=C1c2nccnc2N(CCF)C(=O)C1c1c(F)ccc(F)c1Cl (centres unmarked) [D2]

Result string:
[10, 10, 8, 7, 7, 6]

Dear reader, for each entry below, please note its AMARE damage score (10=total damage to plant; 0=no damage to plant).
1. CC(C)(C)C(=O)Oc1c(-c2c(F)ccc(F)c2Cl)c(=O)n(CCC=C(F)F)c2nccnc12
2. CC(C)(C)C(=O)Oc1c(-c2cc(Cl)ccc2C(F)(F)F)c(=O)n(CC(F)F)c2nccnc12
3. COc1ccc(OC(F)(F)F)cc1-c1c(OC(=O)C(C)(C)C)c2nccnc2n(CC(F)F)c1=O
4. CC(C)(C)C(=O)Oc1c(-c2ccc(C(F)(F)F)cc2Br)c(=O)n(CC(F)F)c2nccnc12
5. CC(C)(C)C(=O)Oc1c(-c2ccccc2OC(F)F)c(=O)n(CC(F)F)c2nccnc12

Result string:
1: 5; 2: 6; 3: 9; 4: 10; 5: 9

Dear reader, for each entry below, please note its AMARE damage score (10=total damage to plant; 0=no damage to plant).
1. COc1ccc(Br)cc1-c1c(O)c2nccnc2n(CC(F)F)c1=O
2. CC(C)C(=O)Oc1c(-c2cc(F)ccc2Cl)c(=O)n(CC(F)F)c2nccnc12

Result string:
9
10

Dear reader, for each entry below, please note its AMARE damage score (10=total damage to plant; 0=no damage to plant).
1. O=c1c(-c2cc(F)ccc2Cl)c(O)c2nccnc2n1CC(F)F
2. CC(C)(C)C(=O)Oc1c(-c2c(F)ccc(F)c2Cl)c(=O)n(CC=C(Cl)Cl)c2nccnc12
3. O=c1c(-c2c(F)ccc(Br)c2Cl)c(O)c2nccnc2n1CC(F)F
4. CC(C)(C)C(=O)Oc1c(-c2c(F)ccc(F)c2Cl)c(=O)n(CCC(F)=C(F)F)c2nccnc12
5. CC(C)(C)C(=O)Oc1c(-c2c(F)ccc(Cl)c2Cl)c(=O)n(CC(F)F)c2nccnc12

Result string:
[10, 0, 10, 6, 10]
